experiment: Apparent permeability in MDCK cells at 50 uM incubated for 90 mins by LC/MS analysis; type: ADME, cell-based, Canis lupus familiaris; details: dog
endpoint.name: Papp at 1.5 h, 50 µM (×10⁻⁶ cm/s)
Numbers only here, please. The scale is ×10⁻⁶ cm/s.

>  <compound.structure.string>
[O-][n+]1c(-c2ccc(Br)cc2)nc2ccc(Br)cn21

>  <Papp at 1.5 h, 50 µM [×10⁻⁶ cm/s]>
1.43

$$$$

We now examine a further molecule.
What Papp at 1.5 h, 50 µM value was documented for this molecule, Brc1ccc(-c2nc3ccc(Br)cn3n2)cc1 ?
3.49

* * *

experiment: AUC (0 to t) in Sprague-Dawley rat at 10 mg/kg, po measured up to 24 hrs by LC-MS/MS analysis; type: ADME, organism-based; design: dose 10 mg/kg, time < 24 hrs, route po; conditions: in vivo
endpoint.name: AUC(0-t) at 24 h (ng·h/mL)
Numbers only here, please. The scale is ng·h/mL.

What AUC(0-t) at 24 h value was documented for this compound, Brc1ccc(-c2nc3ccc(Br)cn3n2)cc1 ?
1400

* * *

experiment: Volume of distribution at steady state in Sprague-Dawley rat at 5 mg/kg, iv measured up to 24 hrs by LC-MS/MS analysis; assay type: ADME, organism-based; details: in vivo, read-out: Vdss
endpoint.name: Vd (L/kg)
Numbers only here, please. The scale is L/kg.

What Vd value was documented for this compound, Brc1ccc(-c2nc3ccc(Br)cn3n2)cc1 ?
1.02

* * *

experiment: Induction of apoptosis in human CD4+ve Th cells; format: toxicity, cell-based
endpoint.name: IC50

What IC50 value was documented for this molecule, CC(C)c1c(O)cc(/C=C/c2ccccc2)cc1O ?
5.2 µM

* * *

experiment: Cytotoxicity against human HUVEC cells assessed as reduction in cell viability measured after 72 hrs by MTT assay; assay type: toxicity, cell-based
endpoint.name: IC50 at 72 h

What IC50 at 72 h value was documented for this compound, Brc1ccc(-c2nc3ccc(Br)cn3n2)cc1 ?
> 300 µM

* * *

test: Oral bioavailability in Sprague-Dawley rat at 10 mg/kg measured up to 24 hrs by LC-MS/MS analysis; format: ADME, organism-based; conditions: in vivo
endpoint.name: bioavailability (%)
Numbers only here, please. The scale is %.

What bioavailability value was documented for this compound, Brc1ccc(-c2nc3ccc(Br)cn3n2)cc1 ?
15.1

* * *

assay: AUC (0 to infinity) in Sprague-Dawley rat at 10 mg/kg, po measured up to 24 hrs by LC-MS/MS analysis; assay type: ADME, organism-based; set-up: time < 24 hrs, dose 10 mg/kg, route po; conditions: in vivo
endpoint.name: AUC(0-inf) (ng·h/mL)
Numbers only here, please. The scale is ng·h/mL.

What AUC(0-inf) value was documented for this molecule, Brc1ccc(-c2nc3ccc(Br)cn3n2)cc1 ?
1420

* * *

assay: MRT in Sprague-Dawley rat at 10 mg/kg, po measured up to 24 hrs by LC-MS/MS analysis; type: ADME, organism-based; details: in vivo
endpoint.name: MRT (h)
Numbers only here, please. The scale is h.

What MRT value was documented for this compound, Brc1ccc(-c2nc3ccc(Br)cn3n2)cc1 ?
1.82

* * *

assay: Solubility of the compound incubated for 48 hrs under shaking condition by LC/MS analysis; assay type: physicochemical
Reported solubility thermodynamic at 48 h values for the following compounds.
Show the value, then the unit it is measured in.

>  <compound.structure.string>
[O-][n+]1c(-c2ccc(Br)cc2)nc2ccc(Br)cn21

>  <solubility thermodynamic at 48 h>
2.24 µg/mL

$$$$

We now examine a further compound.
What solubility thermodynamic at 48 h value was documented for this compound, Brc1ccc(-c2nc3ccc(Br)cn3n2)cc1 ?
17.2 µg/mL
